// reported protein stability index for each item listed
B1: TOR1AIP2 (parent)
chain: SPGHSSAGQEGEDTLRRRLLAPEA

# Variants of: B1
# assayDetails: protein stability index of a GFP-peptide fusion (GPS, HEK-293T) (PSI 1-6); higher = more stable;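 further: lentivirally expressed fusions sorted by FACS into six bins by GFP to DsRed ratio, PSI derived from sequencing read proportions per bin multiplied by bin number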
# conditionSummary: c terminus: a fixed tail appended
Please respond with just the number, no unit label.

Examples from the recorded data:
> print(dat)
   variantid              readoutkind  readoutvalue
1       L15W  protein stability index          3.92
2       E23T  protein stability index          4.53
3       A21G  protein stability index          5.31
4        P2N  protein stability index          4.42
5       E23M  protein stability index          4.47
6       R16Q  protein stability index          5.34
7       R16T  protein stability index          5.04
8       L15T  protein stability index          5.31

**Q:** Answer with the recorded protein stability index of `P22G` only.
**A:** 5.11

**Q:** Tell me protein stability index reported for `H4W`
**A:** 3.98

**Q:** Give me measured protein stability index, please, for this variant: `A21N`
**A:** 4.9

**Q:** Identify measured protein stability index corresponding to `H4C`
**A:** 3.71

**Q:** Note protein stability index for the variant shown: `A7S`
**A:** 4.01

**Q:** Specify protein stability index for `E10P` and stop.
**A:** 3.94

**Q:** Item `E10R` : provide protein stability index
**A:** 3.62

**Q:** Provide protein stability index value for the following variant: `E12K`
**A:** 3.98

**Q:** Please give measured protein stability index of the following entry: `E23C`
**A:** 4.42

**Q:** Supply reported protein stability index belonging to this variant: `S5C`
**A:** 3.37

**Q:** Indicate the recorded protein stability index value for this variant: `L20F`
**A:** 3.94

**Q:** State, in one line, measured protein stability index of `E23S`
**A:** 4.46

**Q:** Report protein stability index, nothing else, for this variant: `S6K`
**A:** 3.97

**Q:** Fill in protein stability index for record `G8Q`
**A:** 4.33
